Below is a list of entries, each paired with its recorded pIC50 value.
# ASSAYED_TARGET: CYP3A4(BFC) (Homo sapiens, UniProt P08684)
# Sequence (P08684 whole entry): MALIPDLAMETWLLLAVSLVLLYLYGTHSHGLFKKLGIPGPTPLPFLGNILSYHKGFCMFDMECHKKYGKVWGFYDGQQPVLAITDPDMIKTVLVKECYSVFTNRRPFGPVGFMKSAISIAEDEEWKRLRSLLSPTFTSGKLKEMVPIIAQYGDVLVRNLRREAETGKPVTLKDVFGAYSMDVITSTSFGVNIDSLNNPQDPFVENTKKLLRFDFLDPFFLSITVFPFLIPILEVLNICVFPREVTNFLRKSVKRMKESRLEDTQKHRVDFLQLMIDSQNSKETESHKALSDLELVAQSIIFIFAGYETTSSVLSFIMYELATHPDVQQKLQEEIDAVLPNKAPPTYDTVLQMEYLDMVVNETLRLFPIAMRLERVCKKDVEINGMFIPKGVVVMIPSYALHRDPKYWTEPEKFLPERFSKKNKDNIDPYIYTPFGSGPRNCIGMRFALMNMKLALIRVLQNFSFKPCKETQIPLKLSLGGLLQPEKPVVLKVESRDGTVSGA
# PROCEDURE_TEXT: CYP3A4(BFC) inhibition (fluorescent substrate)
# Format: in vitro ADME
# RUN_PARAMETERS: read-out: Cyp IC50 3A4(BFC)
# Method: CYP (Cytochrome P450) enzymes are the major drug metabolizing enzymes present in the liver. The inhibition of CYP enzyme activity (IC50) for each of CYP1A2, CYP2C19, CYP2C9, CYP2D6, CYP3A4(BFC) and CYP3A4(BQ) is determined for compounds, where inhibition of metabolism of a known substrate leads to a decrease in the fluorescence of the metabolized product. The fluorescence of the product is monitored as a function of compound concentration. […]
pIC50: −log10 of the molar value.

// query For N#Cc1cnc2[nH]cc(C(=O)c3cccc(NS(=O)(=O)c4cccc(F)c4)c3F)c2c1 , what is its reported pIC50?
// result < 5.00

// query Which pIC50 value is on record for CCCS(=O)(=O)Nc1ccc(F)c(C(=O)c2c[nH]c3ncc(-c4cnc(C)nc4)cc23)c1F ?
// result < 5.00

// query Any idea what its pIC50 is? The compound is CCCS(=O)(=O)Nc1ccc(F)c(C(=O)c2c[nH]c3ncc(-c4ccc(C(=O)NC5CC5)nc4)cc23)c1F
// result < 5.00

====

# ASSAYED_TARGET: CYP3A4(BFC) (Homo sapiens, UniProt P08684)
# PROCEDURE_TEXT: CYP3A4(BFC) inhibition (fluorescent substrate)
# Assay type: in vitro ADME
# RUN_PARAMETERS: read-out: Cyp IC50 3A4(BFC)
pIC50: −log10 of the molar value.
MEASUREMENT_KIND: pIC50

Here is how some compounds turned out for pIC50.
O=C(c1c(F)ccc(NS(=O)(=O)c2cccc(F)c2)c1F)c1c[nH]c2nccc(Cl)c12 5.00 to 5.30
CCCS(=O)(=O)Nc1cccc(C(=O)c2c[nH]c3ncc(-c4cnc(N(C)C)nc4)cc23)c1F < 5.00
CCCS(=O)(=O)Nc1ccc(F)c(C(=O)c2c[nH]c3ncc(-c4ccc(OCCN5CCOCC5)nc4)cc23)c1F < 5.00
CCCS(=O)(=O)Nc1ccc(F)c(C(=O)c2c[nH]c3ncc(-c4ccc(S(=O)(=O)C(C)C)cc4)cc23)c1F < 5.00
N#Cc1ccnc2[nH]cc(C(=O)c3c(F)ccc(NS(=O)(=O)c4cccc(F)c4)c3F)c12 < 5.00
N#Cc1ccnc2[nH]cc(C(=O)c3c(F)ccc(NS(=O)(=O)c4cccnc4)c3F)c12 5.00 to 5.30
COc1cnc2[nH]cc(C(=O)c3c(F)ccc(NS(=O)(=O)c4ccccc4F)c3F)c2c1 < 5.00
CCCS(=O)(=O)Nc1ccc(F)c(C(=O)c2c[nH]c3ncc(-c4ccc(S(=O)(=O)NC)cc4)cc23)c1F < 5.00

// query Missing value: pIC50, CYP3A4(BFC) (Homo sapiens, UniProt P08684), entry CCCS(=O)(=O)Nc1ccc(F)c(C(=O)c2c[nH]c3ncc(-c4ccc(OCCCN5CCOCC5)nc4)cc23)c1F . Fill in?
// result > 5.30

// query Form: Entry = CCCS(=O)(=O)Nc1ccc(F)c(C(=O)c2c[nH]c3ncc(-c4cnc(N5CCOCC5)nc4)cc23)c1F | System = CYP3A4(BFC) (Homo sapiens, UniProt P08684) | pIC50 = ____
// result < 5.00

// query Please state recorded pIC50 (tested on CYP3A4(BFC) (Homo sapiens, UniProt P08684)) of N#Cc1cnc2[nH]cc(C(=O)c3c(F)ccc(NS(=O)(=O)c4ccccc4F)c3F)c2c1
// result < 5.00
